Entry source: PubChem BioAssay (NCI)

Test system: 786-0 renal
Test name: NCI-60 one-dose screen, 48 h (100 = growth as untreated, 0 = no growth, -100 = all killed)
Measurement setup: 10 µM
Compounds without any hit were thinned out: in the full panel of roughly 83,000, 20% have a hit.
Rule: growth under 40% gives Not fulfilled, otherwise Fulfilled.

The following molecules have reported results that may help.
[
  {
    "Molecule": "CSC1=NCCCC1",
    "Label class": "Fulfilled"
  },
  {
    "Molecule": "CN1c2ccccc2[C@]2(Cc3ccccc3)Cc3ccccc3N[C@H]12",
    "Label class": "Fulfilled"
  }
]

Exercise: Form field: growth at least 40%? Entry: `NC1(C(=O)O)CSSC1`
Solution: Fulfilled

Exercise: Does the molecule `O=C(/C(=C/c1ccccc1)CN1CCCCC1)c1ccccc1` have recorded growth that is 40% or more?
Solution: Not fulfilled

Exercise: hey, is growth for this one >= 40%? O=C(CC(C(=O)c1ccccc1)N1CCOCC1)c1ccccc1 (stereo unspecified)
Solution: Fulfilled

Exercise: Determine whether measured growth meets or exceeds 40% for `Cc1ccc(S(=O)(=O)Oc2ccc3c4c(c(=O)oc3c2)CCCCC4)cc1`
Solution: Fulfilled

Exercise: Item `FC(F)(F)c1ccc(-c2cnc(-n3cc(COCCN4CCCCC4)nn3)nc2NC2CCCCCC2)cc1` with growth of 40% or above?
Solution: Fulfilled

Exercise: Record COc1ccc2c(c1)N(CCO)C1=C(C(=O)OC1)C2c1ccccc1 (stereo unspecified) ; criterion: growth no lower than 40%. Met?
Solution: Not fulfilled

Exercise: Quick check: does `O=C(Nc1cccc(-n2cc(-c3ccncc3)c(-c3ccc(O)c(Cl)c3)n2)c1)c1cccc(C(F)(F)F)c1` have growth greater than or equal to 40%?
Solution: Not fulfilled

Exercise: Hi team, for `COc1cc(C(=C2O[C@@H]([C@H]3COC(C)(C)O3)[C@H]3OC(C)(C)O[C@@H]23)c2cc(OC)c(OC)c(OC)c2)cc(OC)c1OC` , is the recorded growth at or above 40%?
Solution: Fulfilled

Exercise: Confirm if growth reported for the molecule `CC/C(=C(/c1ccc(OCCN(C)C)cc1)c1ccc(OC(=O)CCCCC(=O)c2c(C)[nH]c(/C=C3\N=C(c4ccc[nH]4)C=C3OC)c2C)cc1)c1ccccc1` is 40% or above.
Solution: Fulfilled

Exercise: Threshold query (growth >= 40%) on `Clc1ccc(Nc2ccnc(NCCCNc3ccnc4cc(Cl)ccc34)n2)cc1`
Solution: Not fulfilled

Exercise: I'd appreciate it if you could say whether `O=C1/C(=C/c2ccc([N+](=O)[O-])s2)Oc2ccccc21` has growth at least equal to 40%.
Solution: Not fulfilled

Exercise: # bool: growth of `Cn1c(C(N)=O)cc2c1-c1nc(Nc3ccccc3)ncc1CCC2` >= 40%
Solution: Fulfilled

Exercise: Does the reported growth for `COc1cc(NC(=O)CCSc2nc3ccc(Cl)cc3c(=O)n2Cc2ccccc2)cc(OC)c1OC` fall at or above the 40% mark?
Solution: Fulfilled

###

Quick reference: growth of the listed items.
Tested on: MDA-MB-231 breast
Test name: NCI-60 one-dose screen, 48 h (100 = growth as untreated, 0 = no growth, -100 = all killed)
Measurement setup: 10 µM
About 83,000 compounds went through this panel and 20% of them were active in at least one assay; those are over-represented in the sample as a whole.
Quick reminder: number only, in %, skip the unit.

Worked set:
[
  {
    "Compound string": "COc1ccc2c(c1)C(=O)c1c-2c(OCCN2CCCCC2)nc2ccc(OC)cc12",
    "Subject of test": "MDA-MB-231 breast",
    "Endpoint unit": "%",
    "growth": 66.5
  },
  {
    "Compound string": "c1ccc([C@H]2CN3CCSC3=N2)cc1",
    "Subject of test": "MDA-MB-231 breast",
    "Endpoint unit": "%",
    "growth": 101
  }
]

Now look at this one.
response.value for `N=C(N)c1ccc(-c2ccc(-c3cccs3)s2)s1` (field: growth) = -74.3

###

# growth per record follows
Test system: SN12C renal
Test name: NCI-60 one-dose screen, 48 h (100 = growth as untreated, 0 = no growth, -100 = all killed)
Measurement setup: 10 µM
Compounds without any hit were thinned out: in the full panel of roughly 83,000, 20% have a hit.
Response body: numeric value in %, unit text excluded.

[
  {
    "Compound": "CNc1ncc(-c2ccc(C(F)(F)F)cc2)c(NC2CCCCCC2)n1",
    "Obs value": 84
  },
  {
    "Compound": "CC(=O)N1C/C(=C/c2ccc(Cl)cc2)C(=O)/C(=C/c2ccc(Cl)cc2)C1",
    "Obs value": -42.4
  }
]

Looking up `CS(=O)(=O)Nc1cccc(-c2cc(-c3ccccc3Cl)c(C#N)c(N)n2)c1` , I see its growth listed as 51.6

Reported growth ( `COc1ccc2c(c1)O/C(=C\c1ccc([N+](=O)[O-])s1)C2=O` ) = 41.6

The recorded growth for entry O=C1OCC2=C1C(c1cccc(Cl)c1)c1cc3c(cc1N2CCO)CCC3 (stereo unspecified) equals 21.1

Lab note: `Cc1ccc(NC(=O)NC2CCCCC2)cc1` gave growth of 106

###

Test system: HS 578T breast
Test name: NCI-60 one-dose screen, 48 h
Measurement setup: 10 µM
Procedure: Growth inhibition of the HS 578T human tumor cell line is measured as a screen for anti-cancer activity. Cells are grown in 96 well plates and exposed to the test compound for 48 hours. Compounds are tested at a single concentration, which is 10^-5 M for most compounds. The reported endpoint is percent growth (GI% or GIPRCNT), where numbers from 0 - 100% represent growth inhibition, and numbers from -100% - 0 represent cell death. For example, a value of 40 represents 60% growth inhibition. […]
Compounds without any hit were thinned out: in the full panel of roughly 83,000, 20% have a hit. The source made the active and inactive calls. Rule for the calls: active = growth percent below 10; inactive = the rest.
Response enum: 1 for active, 0 for inactive

Use the examples below as a reference point.
[
  {
    "Compound": "C=C(NC(=O)C(=C)NC(=O)c1csc(C2=NC3c4csc(n4)C4NC(=O)c5csc(n5)C(C(C)(O)C(C)O)NC(=O)C5CSC(=N5)/C(=C/C)NC(=O)C(C(C)O)NC(=O)c5csc(n5)C3(CC2)NC(=O)C(C)NC(=O)C(=C)NC(=O)C(=C)NC(=O)C(C(C)C)NC2C=Cc3c(C(C)O)cc(nc3C2O)C(=O)OC4C)n1)C(N)=O (configuration not stated)",
    "Subject of test": "HS 578T breast",
    "Label class": 0
  },
  {
    "Compound": "CC1CC(=O)OC(C)C1 (configuration not stated)",
    "Subject of test": "HS 578T breast",
    "Label class": 0
  },
  {
    "Compound": "COC(=O)[C@@H]1[C@H](O)[C@H](C)[C@H](O)[C@@](C)(O)/C=C\\C=C(C)C(=O)Nc2c(C)c(OC(C)=O)c3c(c2O)C(=O)C(C)=C2OCOC(=C23)C(C)=C[C@@](C)(O)[C@H](O)[C@@H](C)[C@H]1OC(C)=O",
    "Subject of test": "HS 578T breast",
    "Label class": 0
  },
  {
    "Compound": "COc1ccc(OC)c(/C=C/c2nnc(Nc3ccc(Cl)cc3)o2)c1",
    "Subject of test": "HS 578T breast",
    "Label class": 1
  },
  {
    "Compound": "c1ccc(CP(Cc2ccccc2)c2ccccc2)cc1",
    "Subject of test": "HS 578T breast",
    "Label class": 0
  },
  {
    "Compound": "CCc1ccc2c(c1)N(CCO)C1=C(C(=O)OC1)C2c1cc(OC)c(OC)c(OC)c1 (configuration not stated)",
    "Subject of test": "HS 578T breast",
    "Label class": 1
  }
]

API: the following record is the query input.
Exercise: Check the results log: what was the call for `CCOC(=O)CNC(=O)CCCCSc1ncnc2nc[nH]c12` ?
Solution: 0

###

Tested on: IGROV1 ovarian
Test name: NCI-60 one-dose screen, 48 h
Measurement setup: 10 µM
About 83,000 compounds went through this panel and 20% of them were active in at least one assay; those are over-represented in the sample as a whole. Calls of active or inactive are those of the source. How the source made its calls: active means growth percent below 10; inactive means the rest.
Classes to choose from: active, inactive

Exercise: So what was the verdict on Nc1c(C(=O)Nc2cccc(Br)c2)sc2nc3c(cc12)C(O)CCC3 (stereo unspecified) in this test?
Solution: inactive

Exercise: What classification did `Cc1ccc(C(=O)N2C/C(=C/c3ccc(F)cc3)C(=O)/C(=C/c3ccc(F)cc3)C2)cc1` end up with in this test?
Solution: inactive

Exercise: Any idea what this test logged for `O=[N+]([O-])c1ccc(Oc2cc(Cl)c(Cl)cc2Cl)c(C(F)(F)F)c1` ?
Solution: inactive

Exercise: For this compound, state the assay outcome: `NC1=NC(=O)C(c2ccccc2)(c2ccccc2)S1`
Solution: inactive
